B1: HDV Ribozyme (parent)
chain: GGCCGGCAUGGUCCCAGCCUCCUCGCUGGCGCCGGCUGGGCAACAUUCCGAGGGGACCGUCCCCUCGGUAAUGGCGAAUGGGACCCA

Variants of: B1
Assay: self-cleavage, relative activity (ratio to wild type); higher = more cleavage; co-transcriptional
Decide using self-cleavage: a value greater than or equal to 0.2 is Criterion met, a smaller one is Criterion not met.

Asked: Is the recorded value of self-cleavage equal to or greater than 0.2 for this variant? A16U G68U
Given back: Criterion met

Asked: Is the recorded value of self-cleavage equal to or greater than 0.2 for this variant? G1U G73U
Given back: Criterion met

Asked: Is the recorded value of self-cleavage equal to or greater than 0.2 for this variant? C18G U60C
Given back: Criterion not met

Asked: Is the recorded value of self-cleavage equal to or greater than 0.2 for this variant? G1C C7U
Given back: Criterion not met

Asked: Is the recorded value of self-cleavage equal to or greater than 0.2 for this variant? A51C A56U
Given back: Criterion met

Asked: Is the recorded value of self-cleavage equal to or greater than 0.2 for this variant? C64U G73A
Given back: Criterion met

Asked: Is the recorded value of self-cleavage equal to or greater than 0.2 for this variant? C3A G28C
Given back: Criterion not met

Asked: Is the recorded value of self-cleavage equal to or greater than 0.2 for this variant? U23G G25U
Given back: Criterion not met

Asked: Is the recorded value of self-cleavage equal to or greater than 0.2 for this variant? G55C U69A
Given back: Criterion met

Asked: Is the recorded value of self-cleavage equal to or greater than 0.2 for this variant? G38A C64A
Given back: Criterion not met

Asked: Is the recorded value of self-cleavage equal to or greater than 0.2 for this variant? C4G G17A
Given back: Criterion not met

Asked: Is the recorded value of self-cleavage equal to or greater than 0.2 for this variant? U37A G76A
Given back: Criterion not met

Asked: Is the recorded value of self-cleavage equal to or greater than 0.2 for this variant? G5A C44U
Given back: Criterion not met

Asked: Is the recorded value of self-cleavage equal to or greater than 0.2 for this variant? C44U A70G
Given back: Criterion met

Asked: Is the recorded value of self-cleavage equal to or greater than 0.2 for this variant? G10U G82C
Given back: Criterion not met

Asked: Is the recorded value of self-cleavage equal to or greater than 0.2 for this variant? C26G U60G
Given back: Criterion met

Asked: Is the recorded value of self-cleavage equal to or greater than 0.2 for this variant? U65G A87C
Given back: Criterion met

Asked: Is the recorded value of self-cleavage equal to or greater than 0.2 for this variant? U9C G67U
Given back: Criterion met

Asked: Is the recorded value of self-cleavage equal to or greater than 0.2 for this variant? G11U G73A
Given back: Criterion not met

Asked: Is the recorded value of self-cleavage equal to or greater than 0.2 for this variant? U12A C86U
Given back: Criterion not met

Asked: Is the recorded value of self-cleavage equal to or greater than 0.2 for this variant? G38A U69C
Given back: Criterion met

Asked: Is the recorded value of self-cleavage equal to or greater than 0.2 for this variant? C41A U65A
Given back: Criterion met
